Recorded values, source patent US20260248972A1.

ASSAY TEXT: in vivo
SETTINGS: BALB/c nude, mouse, in vivo, iv, total radioactivity, % ID/g Intestine
MEASUREMENT KIND: tissue uptake at 72 h (%ID/g)
Record the value in %ID/g, omitting the unit from your answer.

Form field: reported tissue uptake at 72 h of C[C@@H](O)[C@H](NC(=O)[C@@H]1CSSC[C@H](NC(=O)[C@@H](Cc2ccccc2)NC(=O)CN2CCN(CC(=O)O)CCN(CC(=O)O)CCN(CC(=O)O)CC2)C(=O)N[C@@H](Cc2ccc(O)cc2)C(=O)N[C@H](Cc2c[nH]c3ccccc23)C(=O)N[C@@H](CCCCN)C(=O)N[C@@H]([C@@H](C)O)C(=O)N1)C(=O)O [^177Lu-C-1, metal not drawn, reference compound]
0.11

Form field: reported tissue uptake at 72 h of C[C@@H](O)[C@H](NC(=O)[C@@H]1CSSC[C@H](NC(=O)[C@@H](Cc2ccccc2)NC(=O)[C@H](CCCCNC(=O)COCCOCCNC(=O)c2cccc(NC(=O)N[C@@H]3CN(C4CCCCC4)c4ccccc4N(CC(=O)C(C)(C)C)C3=O)c2)NC(=O)CN2CCN(CC(=O)O)CCN(CC(=O)O)CCN(CC(=O)O)CC2)C(=O)N[C@@H](Cc2ccc(O)cc2)C(=O)N[C@H](Cc2c[nH]c3ccccc23)C(=O)N[C@@H](CCCCN)C(=O)N[C@@H]([C@@H](C)O)C(=O)N1)C(=O)O [^177Lu-I-36, metal not drawn]
1.39

// next entry
Form field: reported tissue uptake at 72 h of C[C@@H](O)[C@H](NC(=O)[C@@H]1CSSC[C@H](NC(=O)[C@@H](Cc2ccccc2)NC(=O)COCCOCCNC(=O)COCCOCCNC(=O)[C@H](CCCCNC(=O)c2cccc(NC(=O)N[C@@H]3CN(C4CCCCC4)c4ccccc4N(CC(=O)C(C)(C)C)C3=O)c2)NC(=O)CN2CCN(CC(=O)O)CCN(CC(=O)O)CCN(CC(=O)O)CC2)C(=O)N[C@@H](Cc2ccc(O)cc2)C(=O)N[C@H](Cc2c[nH]c3ccccc23)C(=O)N[C@@H](CCCCN)C(=O)N[C@@H]([C@@H](C)O)C(=O)N1)C(=O)O [Compound 177Lu-I-39, metal not drawn]
0.24

---

SYSTEM TESTED: CCK2R (Rattus norvegicus)
Construct: host or cells: AR42J cells
Sequence (P30553 1-452): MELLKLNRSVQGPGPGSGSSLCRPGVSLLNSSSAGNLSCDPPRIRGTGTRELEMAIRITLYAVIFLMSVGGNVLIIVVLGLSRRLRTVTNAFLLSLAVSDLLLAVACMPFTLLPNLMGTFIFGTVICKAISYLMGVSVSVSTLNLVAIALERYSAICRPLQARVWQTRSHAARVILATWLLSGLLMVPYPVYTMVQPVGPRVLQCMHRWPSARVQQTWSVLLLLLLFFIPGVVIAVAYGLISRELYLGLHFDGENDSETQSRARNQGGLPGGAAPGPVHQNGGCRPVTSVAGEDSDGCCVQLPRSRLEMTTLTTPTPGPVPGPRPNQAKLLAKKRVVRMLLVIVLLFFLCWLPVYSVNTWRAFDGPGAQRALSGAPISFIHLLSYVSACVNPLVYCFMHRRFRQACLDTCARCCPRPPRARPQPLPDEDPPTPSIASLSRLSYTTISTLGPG
ASSAY TEXT: Competitive cell-binding assay on AR42J cells with 125I-C3 as competitive ligand
SETTINGS: based on mean IC50, C-2 = 1.00
Quick list: Relative Binding Affinity CCK2R per entry.
Provide a numeric answer; units are not to be included.

Query the reported Relative Binding Affinity CCK2R for CCK2R (Rattus norvegicus); item: "C[C@@H](O)[C@H](NC(=O)[C@@H]1CSSC[C@H](NC(=O)[C@@H](Cc2ccccc2)NC(=O)COCCOCCNC(=O)COCCOCCNC(=O)COCCOCCNC(=O)[C@H](CCCCNC(=O)c2cccc(NC(=O)N[C@@H]3CN(C4CCCCC4)c4ccccc4N(CC(=O)C(C)(C)C)C3=O)c2)NC(=O)CN2CCN(CC(=O)O)CCN(CC(=O)O)CCN(CC(=O)O)CC2)C(=O)N[C@@H](Cc2ccc(O)cc2)C(=O)N[C@H](Cc2c[nH]c3ccccc23)C(=O)N[C@@H](CCCCN)C(=O)N[C@@H]([C@@H](C)O)C(=O)N1)C(=O)O"
1.7

Further cases:
Query the reported Relative Binding Affinity CCK2R for CCK2R (Rattus norvegicus); item: C[C@@H](O)[C@H](NC(=O)[C@@H]1CSSC[C@H](NC(=O)[C@@H](Cc2ccccc2)NC(=O)[C@H](CCCCNC(=O)[C@H](CCC(=O)O)NC(=O)c2cccc(NC(=O)N[C@@H]3CN(C4CCCCC4)c4ccccc4N(CC(=O)C(C)(C)C)C3=O)c2)NC(=O)CN2CCN(CC(=O)O)CCN(CC(=O)O)CCN(CC(=O)O)CC2)C(=O)N[C@@H](Cc2ccc(O)cc2)C(=O)N[C@H](Cc2c[nH]c3ccccc23)C(=O)N[C@@H](CCCCN)C(=O)N[C@@H]([C@@H](C)O)C(=O)N1)C(N)=O [Compound I-4, DOTA-K(-E-Z360)-f[CYwKTC]T-NH2]
53.1
